Each recorded value in this set is attributed to ChEMBL document CHEMBL2424587.

- Test system: U-937
- method_notes: Cytotoxicity against human U937 cells after 72 hrs by MTT assay
- Assay type: functional, cell-based
- condition_notes: U-937, 72 h
recorded_metric: pIC50
The read-out pIC50 is expressed as -log10 of concentration in moles per litre.

Study these solved cases before continuing.
CC(C)C1=CC2=CC(=O)[C@H]3C(C)(C)CCC[C@]3(C)C2=C(O)C1=O [TAXODIONE]; 5.52
CCC(=O)OC/C=C(\C)C[C@@H](O)[C@@]1(C)[C@H](C)CC=C2[C@@H]1CCCC2(C)C; 4.61
CC(C)c1c(O)c(O)c2c(c1O)C(=O)C(O)=C1C(C)(C)CCC[C@@]12C; 5.37
C[C@H]1Cc2c(O)c3c(c(O)c2O1)[C@@]1(C)CCC(=O)C(C)(C)C1=C(O)C3=O [TEUVINCENONE A]; 5.82

In the following, a different compound is considered.
Item under review: "CCC(=O)O[C@@H]1[C@@H](OC(C)=O)C2=C(C(=O)C(O)=C(C(C)C)C2=O)[C@@]2(C)CCCC(C)(C)[C@H]12" . Reported pIC50? 5.15

====

Entries and their measured pIC50 follow.
- System: U-937
- method_notes: Cytotoxicity against human U937 cells after 72 hrs by MTT assay
- Type: functional, cell-based
- condition_notes: U-937, 72 h
The read-out pIC50 is expressed as -log10 of concentration in moles per litre.

CCC(=O)OC1=C(C(C)C)C(=O)C2=C(C1=O)[C@@]1(C)CCCC(C)(C)[C@@H]1[C@H](OC(=O)CC)[C@H]2OC(C)=O; 5.41
CC(=O)OC1=C2C(C)(C)CCC[C@]2(C)c2c(cc(C(C)C)c(OC(C)=O)c2OC(C)=O)C1=O; 5.34
COc1c(O)c2c(c(O)c1C(C)C)C(=O)C[C@H]1C(C)(C)CCC[C@]21C; 4.95

In the following, a different molecule is considered.
Item under review: "CC(=O)O[C@H]1C2=C(C(=O)C(OC(=O)c3ccc(Cl)cc3)=C(C(C)C)C2=O)[C@@]2(C)CCCC(C)(C)[C@@H]2[C@@H]1O" . Reported pIC50? 5.96

====

- Tested on: U-937
- method_notes: Cytotoxicity against human U937 cells after 72 hrs by MTT assay
- Format: functional, cell-based
- condition_notes: U-937, 72 h
Param label: returns label 1 when IC50 < 2 µM, returns label 0 otherwise, including exact equality.

Past entries and their recorded results:
COc1cc([C@@H]2c3cc4c(cc3[C@@H](O[C@@H]3O[C@@H]5CO[C@@H](C)O[C@H]5[C@H](O)[C@H]3O)[C@H]3COC(=O)[C@H]23)OCO4)cc(OC)c1O [ETOPOSIDE]; label 1
COc1ccc(C(=O)OC2=C(C(C)C)C(=O)C3=C(C2=O)[C@@]2(C)CCCC(C)(C)[C@@H]2[C@H](O)[C@H]3OC(C)=O)cc1; label 1

Field: below-cutoff. Rule: recorded IC50 strictly less than 2 µM. Subject: "CC(=O)Oc1c(C(C)C)cc2c(c1OC(C)=O)[C@@]1(C)CCCC(C)(C)C1=C(O)C2=O" label 0

Field: below-cutoff. Rule: recorded IC50 strictly less than 2 µM. Subject: "CC(=O)OC1=C(C(C)C)C(=O)C2=C(C1=O)[C@@]1(C)CCCC(C)(C)[C@@H]1[C@H](OC(C)=O)[C@H]2OC(C)=O" label 0

Field: below-cutoff. Rule: recorded IC50 strictly less than 2 µM. Subject: "CC(=O)O[C@H]1C2=C(C(=O)C(OC(=O)c3ccc(Cl)cc3)=C(C(C)C)C2=O)[C@@]2(C)CCCC(C)(C)[C@@H]2[C@@H]1OC(=O)c1ccc(Cl)cc1" label 0

Field: below-cutoff. Rule: recorded IC50 strictly less than 2 µM. Subject: "C/C(=C\CO)C[C@@H](O)[C@@]1(C)[C@H](C)CC=C2[C@@H]1CCCC2(C)C" label 0

Field: below-cutoff. Rule: recorded IC50 strictly less than 2 µM. Subject: "CC(=O)O[C@H]1C2=C(C(=O)C(OC(=O)c3ccc([N+](=O)[O-])cc3)=C(C(C)C)C2=O)[C@@]2(C)CCCC(C)(C)[C@@H]2[C@@H]1O" label 1

Field: below-cutoff. Rule: recorded IC50 strictly less than 2 µM. Subject: "CCCC(=O)OC/C=C(\C)C[C@@H](O)[C@@]1(C)[C@H](C)CC=C2[C@@H]1CCCC2(C)C" label 0

Field: below-cutoff. Rule: recorded IC50 strictly less than 2 µM. Subject: "CC(=O)O[C@@H]1[C@@H](OC(C)=O)C2=C(C(=O)C(O)=C(C(C)C)C2=O)[C@@]2(C)CCCC(C)(C)[C@H]12" label 0

Field: below-cutoff. Rule: recorded IC50 strictly less than 2 µM. Subject: "CC(=O)O[C@H]1C2=C(C(=O)C(O)=C(C(C)C)C2=O)[C@@]2(C)CCCC(C)(C)[C@@H]2[C@@H]1O" label 0

Field: below-cutoff. Rule: recorded IC50 strictly less than 2 µM. Subject: "CC(=O)O[C@H]1C2=C(C(=O)C(OC(=O)c3ccccc3)=C(C(C)C)C2=O)[C@@]2(C)CCCC(C)(C)[C@@H]2[C@@H]1OC(=O)c1ccccc1" label 1
